Numbers sourced from PubChem BioAssay AID1159580.

In this section we review reported normalized growth values for a set of compounds.
# TEST DETAILS: chemical genetic growth profiling, strain panel (AID 1159580);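 note: tested at 20 µM; growth read once vehicle control cultures reached saturation at 30 °C; 1 = growth at the plate median or of vehicle wells; lower values mean less growth of the strain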
# CONDITION DESCRIPTION: S. cerevisiae deletion strains, growth OD, locus YGL078C, strain dbp3, hits give low values
About 2,000 (36%) of roughly 5,500 compounds were called active. Roughly 18% stayed inconclusive and do not appear here. Some of the results follow.
Please state the value as a number alone, without comment.

Reference set, count: 5
[
  {
    "COMPOUND": "CC1(C)C(=O)C=C[C@@]2(C)C1=C(O)C(=O)[C@]1(C)C2CC[C@@]2(C)[C@H](c3ccoc3)C[C@H]3O[C@]321 (stereo partly drawn)",
    "normalized growth": 0.934
  },
  {
    "COMPOUND": "O=C(OC1Cc2c(O)cc(O)cc2OC1c1cc(O)c(O)c(O)c1-c1c(C2Oc3cc(O)cc(O)c3CC2OC(=O)c2cc(O)c(O)c(O)c2)cc(O)c(O)c1O)c1cc(O)c(O)c(O)c1 (stereo not drawn)",
    "normalized growth": 0.987
  },
  {
    "COMPOUND": "CCN(CC)CCOc1ccc(/C(=C(\\Cl)c2ccccc2)c2ccccc2)cc1",
    "normalized growth": 0.919
  },
  {
    "COMPOUND": "COC(=O)C[C@H]1C(C)(C)C(=O)[C@@H]2CC3=C4CC(=O)O[C@@H](c5ccoc5)[C@]4(C)CCC3[C@@]1(C)C2=O (stereo partly drawn)",
    "normalized growth": 1.02
  },
  {
    "COMPOUND": "NCC(CC(=O)O)c1ccc(Cl)s1 (stereo not drawn)",
    "normalized growth": 0.995
  }
]

Query block: Item CC(=O)O[C@@H]1CC2C(C)(C)C=CC(=O)[C@]2(C)C2CC[C@@]3(C)[C@H](c4ccoc4)OC(=O)C4OC43[C@@]21C (stereo partly drawn) has what recorded normalized growth?
Result block: 0.986

Query block: Now consider COc1cc(C(=O)NCc2ccc(OCCN(C)C)cc2)cc(OC)c1OC and answer again.
Result block: 0.981

Query block: Now consider Nc1ccc(S(=O)(=O)Nc2ccc(Cl)nn2)cc1 and answer again.
Result block: 1

* * *

# TEST DETAILS: chemical genetic growth profiling, strain panel (AID 1159580);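 note: tested at 20 µM; growth read once vehicle control cultures reached saturation at 30 °C; 1 = growth at the plate median or of vehicle wells; lower values mean less growth of the strain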
# CONDITION DESCRIPTION: S. cerevisiae deletion strains, growth OD, locus YOR316C, strain cot1
Hit rate of the full screen: of about 5,500 compounds, about 2,000 (36%) were called active. Not shown: some 18% with an inconclusive outcome. Rule as the data show it: active = normalized growth mostly below about 0.91 (no sharp cut-off); inconclusive = no clear call, values can overlap the other calls; inactive = mostly above about 0.92. This is one part of the list.
I would appreciate it if you answered using one of these outcomes: active, inactive

Example entries begin here.
[
  {
    "COMPOUND": "N[C@@H](Cc1ccc(O)c(O)c1)C(=O)O",
    "CATEGORY LABEL": "inactive"
  },
  {
    "COMPOUND": "CNc1ccccc1C(=O)O",
    "CATEGORY LABEL": "inactive"
  },
  {
    "COMPOUND": "Cc1c(O)c(O)cc2c1CC=C1[C@@]2(C)CC[C@@]2(C)C3C[C@](C)(C(=O)O)CC[C@]3(C)CC[C@]12C (stereo partly drawn)",
    "CATEGORY LABEL": "inactive"
  },
  {
    "COMPOUND": "c1ccc2c(c1)cc1ccc3cccc4ccc2c1c34",
    "CATEGORY LABEL": "inactive"
  },
  {
    "COMPOUND": "CC(=O)NCCCCCC(=O)O",
    "CATEGORY LABEL": "inactive"
  },
  {
    "COMPOUND": "O=C(O)c1ccccc1Nc1cccc(C(F)(F)F)c1",
    "CATEGORY LABEL": "inactive"
  },
  {
    "COMPOUND": "CC(=O)Nc1cc([As](=O)(O)O)ccc1O",
    "CATEGORY LABEL": "inactive"
  },
  {
    "COMPOUND": "CC1(C)C(C(Cl)Cl)C2(Cl)C(Cl)C(Cl)C1(Cl)C2(Cl)Cl (stereo not drawn)",
    "CATEGORY LABEL": "inactive"
  },
  {
    "COMPOUND": "CC(C)(C)NCC(O)c1ccccc1Cl (stereo not drawn)",
    "CATEGORY LABEL": "inactive"
  },
  {
    "COMPOUND": "CC(=O)OC1CC(OC(C)=O)C2(C)C(CC(OC(C)=O)C3(C)C2CCC2(C)C(c4ccoc4)CC4OC423)C1(C)C (stereo not drawn)",
    "CATEGORY LABEL": "inactive"
  }
]

Query block: Per the records of this test, what outcome belongs to O=C(O)/C=C/C=C/c1ccccc1 ?
Result block: inactive

Query block: Now consider O=[N+]([O-])c1cc(O)c(O)c([N+](=O)[O-])c1 and answer again.
Result block: inactive

Query block: Now consider CC(C)NCC(O)c1ccc(O)c(O)c1 (stereo not drawn) and answer again.
Result block: inactive

Query block: Now consider CCOP(=S)(OCC)SCn1c(=O)oc2cc(Cl)ccc21 and answer again.
Result block: inactive

Query block: Now consider Nc1ncnc2c1ncn2C1C[C@H](O)[C@@H](CO)O1 (stereo partly drawn) and answer again.
Result block: inactive

Query block: Now consider CC1(C)C(O)CC(O)C2(C)C1CC(O)C1(C)C2CCC2(C)C(c3ccoc3)CC3OC321 (stereo not drawn) and answer again.
Result block: inactive

Query block: Now consider Nc1ccc(C(=O)NCC(=O)O)cc1 and answer again.
Result block: inactive

Query block: Now consider CCCC1O[C@@H]2CC3C4CCC5=CC(=O)C=CC5(C)C4[C@@H](O)CC3(C)[C@]2(C(=O)CO)O1 (stereo partly drawn) and answer again.
Result block: inactive

Query block: Now consider CC/C(=C(\c1ccccc1)c1ccc(OCCN(C)C)cc1)c1ccccc1 and answer again.
Result block: active

Query block: Now consider Oc1ccc(Cl)c2cccnc12 and answer again.
Result block: active

Query block: Now consider NCC(CC(=O)O)c1ccc(Cl)s1 (stereo not drawn) and answer again.
Result block: inactive

Query block: Now consider CC(C)NCC(O)c1ccc2ccccc2c1 (stereo not drawn) and answer again.
Result block: inactive

Query block: Now consider CN/C(=C\[N+](=O)[O-])NCCSCc1ccc(CN(C)C)o1 and answer again.
Result block: inactive

Query block: Now consider Nc1ncnc2c1ncn2C1O[C@H](COP(=O)(O)O)[C@@H](O)[C@H]1O (stereo partly drawn) and answer again.
Result block: inactive

Query block: Now consider C=CCC1(C(C)CCC)C(=O)N=C(S)NC1=O (stereo not drawn) and answer again.
Result block: inactive

* * *

# TEST DETAILS: chemical genetic growth profiling, strain panel (AID 1159580);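 note: tested at 20 µM; growth read once vehicle control cultures reached saturation at 30 °C; 1 = growth at the plate median or of vehicle wells; lower values mean less growth of the strain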
# CONDITION DESCRIPTION: S. cerevisiae deletion strains, growth OD, locus YPL051W, strain arl3, hits give low values
The campaign covered roughly 5,500 compounds. About 2,000 (36%) were called active. Not shown: some 18% with an inconclusive outcome. The list shows a part of the results.
Values of normalized growth strictly less than 1 map to condition met, and values of at least 1 map to condition not met.

Example entries begin here.
[
  {
    "MOLECULE": "C=CC(C)(O)CC/C=C(\\C)CCC=C(C)C (configuration not stated)",
    "CATEGORY LABEL": "condition met"
  },
  {
    "MOLECULE": "CCC(Cc1c(I)cc(I)c(N)c1I)C(=O)O (configuration not stated)",
    "CATEGORY LABEL": "condition met"
  },
  {
    "MOLECULE": "CC(=O)O[C@@H]1CC2C(C)(C)C=CC(=O)[C@]2(C)C2CC[C@@]3(C)[C@H](c4ccoc4)OC(=O)C4OC43[C@@]21C (some centres not stated)",
    "CATEGORY LABEL": "condition not met"
  },
  {
    "MOLECULE": "Oc1c(I)cc(I)c2cccnc12",
    "CATEGORY LABEL": "condition met"
  }
]

Please look at the following molecule next.
Query block: Does Oc1ccc(Cl)c2cccnc12 have normalized growth strictly under 1?
Result block: condition met

* * *

# TEST DETAILS: chemical genetic growth profiling, strain panel (AID 1159580);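 note: tested at 20 µM; growth read once vehicle control cultures reached saturation at 30 °C; 1 = growth at the plate median or of vehicle wells; lower values mean less growth of the strain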
# CONDITION DESCRIPTION: S. cerevisiae deletion strains, growth OD, locus YPL055C, strain LGE1, hits give low values
In all, about 5,500 compounds went through this assay and about 2,000 (36%) were called active. About 18% were inconclusive and are not listed. The list shows a part of the results.
REPORTED PROPERTY: normalized growth
Please state the value as a number alone, without comment.

[
  {
    "COMPOUND": "Cc1onc(NC(=O)NC(=O)c2c(F)cccc2Cl)c1Br",
    "normalized growth": 0.964
  }
]

Query block: Item COc1ccc2c(c1)[C@@]13CCCC[C@H]1[C@@H](C2)NCC3 has what recorded normalized growth?
Result block: 0.983

Query block: Now consider CCC(Cc1c(I)cc(I)c(N)c1I)C(=O)O (centres undefined) and answer again.
Result block: 1.04

Query block: Now consider C=CC(C)(O)CC/C=C(\C)CCC=C(C)C (centres undefined) and answer again.
Result block: 0.88

Query block: Now consider CC1CCN(C(=O)CC#N)CC1 and answer again.
Result block: 0.979

Query block: Now consider CC(C)=CCC[C@](C)(O)C1CC=C(C)CC1 (some centres undefined) and answer again.
Result block: 1.04

Query block: Now consider COc1ccc(-c2ccnc(SCC(=O)NCCSCc3ccco3)n2)cc1 and answer again.
Result block: 1.02

Query block: Now consider Cc1c(-c2ccnc(N)n2)nnn1-c1ccc(Cl)cc1Cl and answer again.
Result block: 1.08

Query block: Now consider CCOc1ccc(/C=C(\C)[N+](=O)[O-])cc1OC and answer again.
Result block: 0.86
